- assaySummary: yeast display, Sf9 membrane polyspecificity reagent, FACS + sequencing; frameworks hold sequencing errors
metric: polyreactivity (PSR sort gate)

1) QVQLVESGGGLVQAGGSLRLSCAASVYGMGWYRQAPGKERELVAAISNGGTTYYADSVKGRFTISRDNAKNTVYLQMNSLKPEDTAVYYCAARSWPGGFIYYYWGQGTQVTVSS = low polyreactivity
2) QDQLVESGGGLVQAGGSLRLSCSASGSIFRDKAMGWYRQAPGKERELVAAISIVGSTSYADSVKGRFTISRDNAKNTVYLQMNSLKPEDTAVYYCAADTFYSYYDMDYWGQGTQVTVSS = low polyreactivity
3) QVQLVESGGGLVQAGGSLRLSCAASGFTFESYAMGWYRQAPGKERELVAAISWNGGSTYYADSVKGRFTISRDNAKNTVYLQMNSLKPEDTAVYYCAARGRAPRFRRIGYDYWGQGTQVTVSS = high polyreactivity
4) QVQLVESGGGLDQAGGSHRLSCAASGSTFPYPNTMGWYRQAPGKERELVAVISRTGGSTFYADSVKWRFTISRDNAKNTVYFQMNSLKPEDTAVYYCAARRDGWTFWKYDYWGHGTQVTVSS = high polyreactivity
5) QVQLEESGGGLVQAGGRHRLSCAASGNIFTSYTMGWYRQAPGKERELVAAISGGGGSTYYADSVKGRFTISRDNAKNTVYLQMNSLKPEDTAVYYCNAGRWWRRGYGYWGQGTQVTVSS = high polyreactivity

Fill blank: measured polyreactivity (PSR sort gate) of the sequence QVQLVESGGGLVQAGGSLRLSCAASGFIFAIYAMGWYRQAPGKERELVAAITSSSSTYADSVKGRFTISRDNAKNTVYLQMNSLKPEDTAVYYCAADTYSYRNSNDYWGQGTQVTVSS is ____.
low polyreactivity

Fill blank: measured polyreactivity (PSR sort gate) of the sequence QVQLVESGGGLVQAGGSLRLTCAASGFIYPYYAMGWYRQATGKERELVATNTRSGGSTYYADSVKGRFTISLDNAKNNVYLQMNSVKQEDSAVYSCAADIYWYRGYGFWGQGTQVTVSS is ____.
high polyreactivity

Fill blank: measured polyreactivity (PSR sort gate) of the sequence QVQLVESRGGLVQAGGSLRLSCAASGFIFSRYGMGWYRQAPGKERELVAAISRSGGSTYYADSVKGRFTISRDNAKNTVYVQMNSLKPEDTAVYYCATAYSWRNADWFAYSYDYWGQGTQVTVSS is ____.
low polyreactivity

Fill blank: measured polyreactivity (PSR sort gate) of the sequence QVQLVESGGGLVQAGGSLRLSCAASGFTFGPYDMGWYRQAPGKERELVAVIIGGDSTNYADSVKGRFTISRDNAKYTVYLQMNSLKPEDTAVYYCAADYIDRVGWMDYWGQGTQVTVSS is ____.
low polyreactivity

Fill blank: measured polyreactivity (PSR sort gate) of the sequence QVQLVESGGGLVQAGGSLRLSCAASGSTFGPYAMGWYRQAPGKERELVAAITKSGGRTYYADSVKGRFTISRDNAKNTVYLQMNSLKPEDTAVYYCAAYGSVGLEYWGQGTQVTVSS is ____.
high polyreactivity

Fill blank: measured polyreactivity (PSR sort gate) of the sequence QVQLVESGGGLVQAGGILRLSCAASGSTISYNAMGWYRQAPGKERELVAAINYSGGNTNYADSVKGRFTISRDNAKNTVYLQMNSLKPEDTAVYYCAARWWSGYGYWGQGTQVTVSS is ____.
high polyreactivity

###

- assaySummary: yeast display, Sf9 membrane polyspecificity reagent, FACS + sequencing; frameworks hold sequencing errors
metric: polyreactivity (PSR sort gate)

Here's what some known entries look like.
1. QVQLVESGGGLVQAGGSLRLSCAASGRTFRPYAMGWYRQAPGKERDLVAAIDSSGTSTYYADSVKGRFTISRDNAKKTVYLKMNSLKPEDTAVYYCAKAWPDHWYSRYDYWGQGTQVTVSS = low polyreactivity
2. QVQLVESGGGLVQAGGSLRLSCAASGGTLRGYAMGWYRQAPGKERELVASITYTSGSTYYADSVKGRFTISRDNAKNTVYLQINSLKPEDTAVYYCAAVARTVPSYSYNYWGQGTKVTVSS = high polyreactivity
3. QVQLVESGGGLVQAGGSLRLSCAASGSIFRYYAMVWYRQAPGKERELVAAISSGGNTKYADSVKGRFTISRDNAKNTVYLQRNSLKPADTAVYYCNADGKAGGDYDYWGQGTQVTVSS = low polyreactivity
4. QVQLVESGGGLVQAGGSLRLSCAPSGSTFRTYAMGWYRQAPGKERELVAAISSGDNTNYADSVKGRFTISRDNAKNTAYLQMNSLKPEDTAVYYCASRAYRWRSFYTMYYCGQGTQVTVSS = high polyreactivity

Continue with the next sequence.
Fill blank: measured polyreactivity (PSR sort gate) of the sequence QVQLVESGGGLVQAGGSLRLSCAASGRIFTRNAMGWYRQAPGKERELVATISAGGGRTSYADSVKGRFTISRDNAKNTVELQMNSLKPEDTAVYYCAARGQVGYYWGQGTQVTVSS is ____.
high polyreactivity

###

- assaySummary: yeast display, Sf9 membrane polyspecificity reagent, FACS + sequencing; frameworks hold sequencing errors
metric: polyreactivity (PSR sort gate)

1. QDQLVESGGGLVQAGGSLRLSCAASGRILGSNTMGWDRQAPGKERELVAAITSAGNTNYADSVKGRFTISRDNAKNTVYLQMNSLKPEDTAVYYCNVRGQRLYYRVRRLYDYWGQGTQVTVSS = high polyreactivity
2. QVQLVESGGGLVQAGGSLRLSCAASGSIFNYYAMGWYRQAPGKERELVAAITTSGGRTYYADSVKGRFTISRDNAKNTVYLQMNSLKPEDTAVYYCAARGYGRRAYVYRYDYWGQGTQVTVSS = high polyreactivity
3. QVKLLESGGGLVQAGGSLLLSCAASGSIFDGYSMVWYRQAPGKEREFVASIRFSTGRTYYADSVKGRFTISRDNAKNTVYLQMNSLKPEDTAVYYCNAPQGFVWRYSSWGPYDYWGQGTQVTVSS = high polyreactivity

###

- assaySummary: yeast display, Sf9 membrane polyspecificity reagent, FACS + sequencing; frameworks hold sequencing errors
metric: polyreactivity (PSR sort gate)

Here's what some known entries look like.
1) QVQLVESGGGLVQAGGSLRLSCAASGFTFKWYTMGWYRPAPGKERELVAGISRRGGSTYYADSVKGRFTISRDNAKNTVYLQMNSLKPEDTAVYYCARRFLYPYDHWGQGTQVTVSS = high polyreactivity
2) QLQLVESGGGLVQAGGSLRLSCAASGRTFSTYAMGWYRQAPGKEIELVAAISSGGGRTYYADSVKGRFTISRDNAKNTVYLQMNSLKQEDTAVYYCAADRYFRSRRSYEYWGQGTQVTVSS = low polyreactivity
3) QVQLVESGGGLVQAGGSLRLSCAASGIIFLFYAMGWYRQAPGKERELVASITWSGGSTYYADSVKGRFTISRDNAKNTVYLQMNSLKPEDTAVYYCAASVKIISYLVHSEFLGGELDYWGQGTQVTVSS = low polyreactivity
4) QVQLVESGGGLVQAGGSLRLSCAASGSISFRYAMGWYRQAPGKDRELVAAITSGGGTTYYADSVKGRFTISRDNAKNTVYLQMNSMKPEDTAVYYCAKPRARQAFDYWGQGTQVTVSS = high polyreactivity

Continue with the next sequence.
Fill blank: measured polyreactivity (PSR sort gate) of the sequence QVQLVESGGGLVQAGGSLRLSCAASGFIILINVMGGYRQAPGNERELVAVITGGGTTNYADSVKGRFTISRDNAKNTVYLQMYSLKPEDTAVYYCAADWIVVSEFGLDYHMDYWGQGSQVTVSS is ____.
low polyreactivity

###

- assaySummary: yeast display, Sf9 membrane polyspecificity reagent, FACS + sequencing; frameworks hold sequencing errors
metric: polyreactivity (PSR sort gate)

Here's what some known entries look like.
1. QVQLVESGGGLVQAGGSLRLSCAASGITFTQYAMGWYRQAPGKERELVAAISKRGGRTYYADSVKGRFTISRDNAKNTVYLQMNSLKPEDTAVYYCATVPYGEVDYWGQGTQVTVSS = high polyreactivity
2. QVQLVESGGGKVQAGGSLRLSCAASGFTFSNAMGWYRQAPGKERELVAAITRIGGSTFYADSVKGRFTISRDNAKNTVYLQLNSLKPEDTAVYSCAADYGLPLYEGYYWGQGTQVTVSS = low polyreactivity
3. QVQLVESGGGLVQAGGSLRLSCAASGSIFIAYGMGWYRQEPGKERELVAAITVSGGNTYYADSVKGRFTISRDNAKNTVYLQMYSLKPEDTAVYYCADVTYWQDGHRGNYWGQGTQVTVSS = low polyreactivity
4. QVQLVETGGGLVQAGGSLRLSCAASGRTFYFNTMGWYRQAPGKERELVAAISSGVNTYYADSVKGRFTISRDNAKNTVYLQMNSLKPEDTAVYYCAASARTYVQSGYWGQGTQVTVSS = high polyreactivity
5. QVQLVESVGGLVQAGGSLRLSCAASGSTFVDYAMGWYRQAPGKERELVAAINSDGGGTYYADSVKGRFTISRDNAKNTVYLQMNSLKPEDTAVYYCNVEYVDYYAQRYGYDYWGQGTQVTLSS = low polyreactivity

Fill blank: measured polyreactivity (PSR sort gate) of the sequence QVQLVESGGGLVQAGGSLRLSCAASGRIFGTYAMGWYIQAPGKERELVAGITWRTASTYYADSVKGRFTISRDNAKNTVYLQMNSLKPEDTAVYYCNADAWVWYYYYSYDYWGQGTQVTVSS is ____.
low polyreactivity

Fill blank: measured polyreactivity (PSR sort gate) of the sequence QVQLVESGGGLVQAGGSLRLSCAASGFIFYYAMGWYRQAPGKERELVAGITESDGSTNYADSVKGRFTISRDNAKNTVYLQMNSLKTEVTAVYYCAKDASSLRFDYWGQGTQVTVSS is ____.
low polyreactivity
